Target: Hepatocyte nuclear factor 3-beta (Homo sapiens) (UniProt Q9Y261)
Sequence (Q9Y261 whole entry, looked up): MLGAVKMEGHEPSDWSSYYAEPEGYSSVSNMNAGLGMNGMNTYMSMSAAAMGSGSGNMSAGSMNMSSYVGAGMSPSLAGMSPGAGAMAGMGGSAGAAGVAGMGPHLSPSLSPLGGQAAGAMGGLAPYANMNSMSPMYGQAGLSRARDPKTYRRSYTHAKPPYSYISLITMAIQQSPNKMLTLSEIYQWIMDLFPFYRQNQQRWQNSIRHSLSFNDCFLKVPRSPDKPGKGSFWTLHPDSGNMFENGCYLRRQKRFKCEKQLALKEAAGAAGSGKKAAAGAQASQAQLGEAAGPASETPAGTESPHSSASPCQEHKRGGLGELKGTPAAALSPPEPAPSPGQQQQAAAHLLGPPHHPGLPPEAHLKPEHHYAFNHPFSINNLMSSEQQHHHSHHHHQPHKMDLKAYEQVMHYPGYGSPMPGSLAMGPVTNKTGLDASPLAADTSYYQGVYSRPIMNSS
Test: ATG_FoxA2_CIS: Attagene CIS-FACTORIAL HepG2 Assay for human Forkhead box A2 (FOXA2) (AID 2282942)
Settings: HepG2 cis-reporter transcription factor activity, 24 h; actives raise or lower the signal
The source made the active and inactive calls. The calls were made as follows: active = hit-call score of the fitted dose curve at least 0.9, where 1 is the maximum; inactive = score below 0.9.
Hi there, use one of these labels in your reply, thanks! YES = active, NO = inactive

CCCSP(=O)(OCC)Oc1ccc(Br)cc1Cl (centres undefined)
NO

Status in this test for `N#CSCSC#N` ?
NO

Lookup CCOP(=S)(Oc1cnc(C(C)(C)C)nc1)OC(C)C (centres undefined)
NO

Field entry: `CCNc1nc(Cl)nc(NC(C)(C)C#N)n1`
NO

Please give the result for `CCCCOC(=O)c1ccccc1C(=O)O` too.
YES

What do we get for `CNC(=O)Oc1cccc2c1OC(C)(C)O2` ?
NO

Moving on to `CNC(=O)ON=C(C)SC`
NO

Now give it for `CON=C(C(=O)OC)c1ccccc1CON=C(C)c1cccc(C(F)(F)F)c1` too.
NO

Also need `CC[C@H](C)[C@H]1O[C@]2(C=C[C@@H]1C)C[C@@H]1C[C@@H](C/C=C(\C)[C@@H](O[C@H]3C[C@H](OC)[C@@H](O[C@H]4C[C@H](OC)[C@@H](NC)[C@H](C)O4)[C@H](C)O3)[C@@H](C)/C=C/C=C3\CO[C@@H]4[C@H](O)C(C)=C[C@@H](C(=O)O1)[C@]34O)O2` , thanks.
NO

Also, `CC1=NNC(=O)N(/N=C/c2cccnc2)C1` please.
NO

Again, but for `Nc1nc(N)nc(NC2CC2)n1`
NO

And what about the compound `COc1cc(OC)nc(Sc2cccc(Cl)c2C(=O)O)n1` ?
NO

Likewise for `CSc1nnc(C(C)(C)C)c(=O)n1N` ?
NO

Now the same for FC(F)C(F)(F)OCC(Cn1cncn1)c1ccc(Cl)cc1Cl (centres undefined)
YES

// next record `CCOP(=S)(OCC)Oc1ccc([N+](=O)[O-])cc1`
NO

// same read-out, input: `CCC(=O)Nc1ccc(Cl)c(Cl)c1`
NO

Same read-out for `O=c1ccc(=O)[nH][nH]1` ?
NO

Now consider `CC1(C(=O)Nc2ccc(O)c(Cl)c2Cl)CCCCC1` .
NO

Next compound: `CSc1nc(NC(C)C)nc(NC(C)C)n1`
NO

What do we get for CCOP(=O)(SC(C)CC)N1CCSC1=O (centres undefined) ?
NO

How about `CCOP(=S)(OCC)SCCSCC` ?
NO

Again, but for `CCCSP(=O)(OCC)SCCC`
NO

Queued: `CCOC(=O)COc1cc(-c2nn(C)c(OC(F)F)c2Cl)c(F)cc1Cl`
NO

Further, for `Cc1cc(C2CC2)nc(Nc2ccccc2)n1` ?
YES

Next compound up: `CN1COCN(Cc2cnc(Cl)s2)C1=N[N+](=O)[O-]`
NO

---

Read-out: Interleukin-8 (IL8), CXCL8 (gene 3576)
Test: BSK_LPS_IL8: BioMAP Diversity Plus: LPS Assay for Interleukin-8 (IL8) Biomarker Activity (AID 2283078)
Settings: primary human HUVEC with PBMC; actives raise or lower the signal
The source made the active and inactive calls. Rule for the calls: active = hit-call score of the fitted dose curve at least 0.9, where 1 is the maximum; inactive = score below 0.9.
The reply should name one outcome from yes = active, no = inactive

Here's what some known entries look like.
CCOP(=S)(OCC)SCCSCC
no
CN(C)NC(=O)CCC(=O)O
no
COP(=O)(OC)OC(Br)C(Cl)(Cl)Br (configuration not stated)
yes

What did the test return for `CN1COCN(Cc2cnc(Cl)s2)C1=N[N+](=O)[O-]` ?
no

---

Experiment: Tanguay_ZF_120hpf_SWIM_legacy: (Legacy) Oregon State University Tanguay Lab 120 Hour Post-fertilization zebrafish Assay for Swim Bladder Malformation (AID 2283654);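 also: swim bladder malformation in each larva scored yes or no under brightfield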
Inconclusive results are not listed. The source made the active and inactive calls. How the source made its calls: active means hit-call score of the fitted dose curve at least 0.9, where 1 is the maximum; inconclusive means response in the unintended direction; inactive means score below 0.9.
assay_readout: outcome

CCC(=O)Nc1ccc(Cl)c(Cl)c1
inactive
Nc1c(Cl)cc([N+](=O)[O-])cc1Cl
inactive
CCOP(=O)(OCC)Oc1cc(C)nc(C(C)C)n1
inactive

---

Assay: BSK_3C_TissueFactor: BioMAP Diversity Plus: 3C Assay for Tissue Factor Biomarker Activity (AID 2282997)
Conditions: BioMAP 3C HUVEC, tissue factor biomarker readout; actives raise or lower the signal
Active and inactive are the calls of the source. How the source made its calls: active means hit-call score of the fitted dose curve at least 0.9, where 1 is the maximum; inactive means score below 0.9.
One label from this list, please: active, inactive

Example cases with answers are listed next.
CC[C@H](C)[C@H]1O[C@]2(C=C[C@@H]1C)C[C@@H]1C[C@@H](C/C=C(\C)[C@@H](O[C@H]3C[C@H](OC)[C@@H](O[C@H]4C[C@H](OC)[C@@H](NC)[C@H](C)O4)[C@H](C)O3)[C@@H](C)/C=C/C=C3\CO[C@@H]4[C@H](O)C(C)=C[C@@H](C(=O)O1)[C@]34O)O2
inactive
CC1(C(=O)Nc2ccc(O)c(Cl)c2Cl)CCCCC1
inactive
CCc1cccc(C)c1N(C(=O)CCl)C(C)COC (centres undefined)
inactive
CN1COCN(Cc2cnc(Cl)s2)C1=N[N+](=O)[O-]
inactive
CCOP(=S)(OCC)OC(Cl)C(Cl)(Cl)Cl (centres undefined)
inactive
CC(=NC#N)N(C)Cc1ccc(Cl)nc1
inactive
C#CCC1=C(C)C(OC(=O)C2C(C=C(C)C)C2(C)C)CC1=O (centres undefined)
inactive
CCOP(=S)(OCC)Oc1ccc([N+](=O)[O-])cc1
inactive

Here is another molecule to look at.
Entry CC(C)=CC1C(C(=O)OCN2C(=O)C3=C(CCCC3)C2=O)C1(C)C (centres undefined) : call = ?
active

---

Read-out: Cytochrome P450 3A4 (Homo sapiens)
Assay: LTEA_HepaRG_CYP3A4: Life Technologies and Expression Analysis (LTEA) Assay for CYP3A4 using HepaRG (AID 2283487)
Conditions: mRNA level, 48 h; actives raise or lower the signal
The source made the active and inactive calls. How the source made its calls: active means hit-call score of the fitted dose curve at least 0.9, where 1 is the maximum; inactive means score below 0.9.
// one of active, inactive, no free text

C[N+]1(C)CCCCC1
inactive

Field: outcome | Entry: `CC(=NC#N)N(C)Cc1ccc(Cl)nc1`
active

---

Target: Heat shock factor protein 1 (Homo sapiens) (UniProt Q00613)
Sequence (Q00613 whole entry, looked up): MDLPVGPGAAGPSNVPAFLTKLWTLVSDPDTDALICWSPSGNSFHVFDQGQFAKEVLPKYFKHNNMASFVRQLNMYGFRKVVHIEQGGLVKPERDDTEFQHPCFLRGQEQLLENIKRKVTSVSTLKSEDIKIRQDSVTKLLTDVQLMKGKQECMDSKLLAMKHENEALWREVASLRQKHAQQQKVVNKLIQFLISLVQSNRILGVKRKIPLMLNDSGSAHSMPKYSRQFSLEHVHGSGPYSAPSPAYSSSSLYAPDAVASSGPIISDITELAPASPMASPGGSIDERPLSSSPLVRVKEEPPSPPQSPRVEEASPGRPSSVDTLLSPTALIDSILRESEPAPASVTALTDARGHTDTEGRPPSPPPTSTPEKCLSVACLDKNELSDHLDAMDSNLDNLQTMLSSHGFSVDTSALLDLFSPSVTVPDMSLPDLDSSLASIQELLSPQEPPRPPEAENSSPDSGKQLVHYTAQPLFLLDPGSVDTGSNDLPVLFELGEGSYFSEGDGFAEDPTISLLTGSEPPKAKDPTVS
Assay: ATG_HSE_CIS: Attagene CIS-FACTORIAL HepG2 Assay for human Heat Shock Transcription Factor 1 (HSE) (AID 2282953)
Settings: HepG2 HSE cis-reporter, Attagene RNA transcription; actives raise or lower the signal
Calls of active or inactive are those of the source. Rule for the calls: active = hit-call score of the fitted dose curve at least 0.9, where 1 is the maximum; inactive = score below 0.9.
Returns: one label drawn from active, inactive

Cc1cc(C2CC2)nc(Nc2ccccc2)n1
inactive
COc1ccc(C(=CC(=O)N2CCOCC2)c2ccc(Cl)cc2)cc1OC
inactive
CC(C)N(C(=O)SCC(Cl)=C(Cl)Cl)C(C)C
inactive

What was the test verdict on `COc1cccc(C(=O)NN(C(=O)c2cc(C)cc(C)c2)C(C)(C)C)c1C` ?
inactive

Repeat with `CC1(C(=O)Nc2ccc(O)c(Cl)c2Cl)CCCCC1`
inactive

Also `Nc1c(Cl)cc([N+](=O)[O-])cc1Cl` , if possible.
inactive

How about this compound: `C[Si](Cn1cncn1)(c1ccc(F)cc1)c1ccc(F)cc1`
active

Please do the same for `CCCOCC(=Nc1ccc(Cl)cc1C(F)(F)F)n1ccnc1` as well.
inactive

And CCOC(=O)CC(SP(=O)(OC)OC)C(=O)OCC (centres undefined) ?
inactive

Then this compound: `Nc1nc(N)nc(NC2CC2)n1`
inactive

Would you kindly repeat that for `CC(C)[C@H](C(=O)O[C@H](C#N)c1cccc(Oc2ccccc2)c1)c1ccc(Cl)cc1` ?
inactive

Okay, and CCc1cnc(C2=NC(C)(C(C)C)C(=O)N2)c(C(=O)O)c1 (centres undefined) ?
inactive

What do you get for COP(=O)(OC)C(O)C(Cl)(Cl)Cl (centres undefined) ?
inactive

Also `CCCSP(=O)(OCC)SCCC` ?
inactive

Likewise for `CCc1cccc(CC)c1N(COC)C(=O)CCl` ?
inactive

Subsequent entry: `CSC1=N[C@@](C)(c2ccccc2)C(=O)N1Nc1ccccc1`
inactive

What do you get for `CNc1cnn(-c2cccc(C(F)(F)F)c2)c(=O)c1Cl` ?
active

Subsequent entry: `O=[N+]([O-])c1cc(C(F)(F)F)c(Cl)c([N+](=O)[O-])c1Nc1ncc(C(F)(F)F)cc1Cl`
inactive

What would you report for `C=C(C)[C@H]1Cc2c(ccc3c2O[C@@H]2COc4cc(OC)c(OC)cc4[C@@H]2C3=O)O1` ?
inactive

---

Overview of reported AC50 across a group of compounds:
Tested on: TTR (gene 7276)
Assay: CCTE_GLTED_hTTR_0.125uM: CCTE's human Transthyretin (hTTR) Inhibition Assay, with 0.125uM TTR, Great Lakes Toxicology and Ecology Division (GLTED) Lab (AID 2284431);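 also: hits lower the fluorescence signal relative to DMSO baseline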
Active and inactive are the calls of the source. How the source made its calls: active means hit-call score of the fitted dose curve at least 0.9, where 1 is the maximum; inactive means score below 0.9.

Study these solved cases before continuing.
O=[N+]([O-])c1cc(C(F)(F)F)c(Cl)c([N+](=O)[O-])c1Nc1ncc(C(F)(F)F)cc1Cl
0.0665 µM (active)
Nc1c(Cl)cc([N+](=O)[O-])cc1Cl
0.176 µM (active)
CCCOCC(=Nc1ccc(Cl)cc1C(F)(F)F)n1ccnc1
3.56 µM (active)
CCOP(=S)(OCC)OC(Cl)C(Cl)(Cl)Cl (stereo not drawn)
33.2 µM (active)
Cc1cc(C2CC2)nc(Nc2ccccc2)n1
14.8 µM (active)
COc1cccc(C(=O)NN(C(=O)c2cc(C)cc(C)c2)C(C)(C)C)c1C
20.6 µM (active)
CC1(C(=O)Nc2ccc(O)c(Cl)c2Cl)CCCCC1
7.98 µM (active)

Under TTR (gene 7276): AC50 value of `CCC(CC)Nc1c([N+](=O)[O-])cc(C)c(C)c1[N+](=O)[O-]` ?
0.448 µM (active)
